Data provenance is PubChem BioAssay (NCATS).

# Tested on: NIH3T3
# Assay: Cytotoxic Profiling of Annotated Libraries Using Quantitative High-Throughput Screening (AID 1296008); note: % is set by controls: 0 for no effect and ±100 for the full control effect; nearly all actives have a fitted effect of over 60% in size
# Condition Set: Five cell lines viability, CellTiter-Glo ATP luminescence, 48-72 h; hits give low values
Results filed as inconclusive are left out.
Attribute Measured: max response (%)
Give bare numbers, in %.

>  <Compound>
NS(=O)(=O)c1ccc(N2N=C(c3ccccc3)CC2c2ccccc2)cc1 (centres undefined)

>  <Obs Value>
2.93

$$$$
>  <Compound>
COC(=O)C[C@H]1[C@]2(C)C3=C(C)[C@H](c4ccoc4)C[C@H]3O[C@@H]2[C@H](O)C2[C@](C)(C(=O)OC)C=CC(=O)[C@@]21C (some centres undefined)

>  <Obs Value>
3.36

$$$$
>  <Compound>
C=C1C(=O)O[C@H]2C1CCC(C)=C1C(=O)C=C(C)[C@@]12O (some centres undefined)

>  <Obs Value>
-6.36

$$$$
>  <Compound>
Cc1ccc(N2CCN(S(=O)(=O)N3CCCCC3)CC2)c(C)c1

>  <Obs Value>
4.82

$$$$
>  <Compound>
CCc1cnc(N2CCC(c3nc(COc4ccc(-n5cnnn5)cc4)cs3)CC2)nc1

>  <Obs Value>
-9.02

$$$$

Provide reported max response for each item, in the same order as listed.
1. O=C1Nc2ccccc2-c2nc3ccccc3c(=O)n2-c2c(O)cccc21
2. O=S(=O)(c1ccc(Cl)cc1)N1CCN(c2ccnc3cc(Cl)ccc23)CC1

## Result
1: 1.73; 2: 3.17

Provide reported max response for each item, in the same order as listed.
1. Cc1ccc(-c2ncc[nH]2)cc1NC(=O)c1ccc(OCc2ccccn2)cc1
2. Cc1ccc(C2(C(=O)N3CCC(n4nc(-c5ccccc5)oc4=O)CC3)CC2)cc1

## Result
1: -1.84; 2: -1.74
